- study_system: recombinant soluble homotrimeric HA of A/Vietnam/1203/04 (H5N1) (Influenza A virus A/VietNam/1203/2004(H5N1))
- method_description: trimeric HA microarray, transfection supernatant set 2
- condition_notes: remark: other sources report otherwise
In this section, each of the binders is paired with its reported Trimeric HA Binding: RLU.
value_type: Trimeric HA Binding: RLU (RLU)

>  <binder>
TCN-522 (3212_I12) (antibody, V domains shown) VH: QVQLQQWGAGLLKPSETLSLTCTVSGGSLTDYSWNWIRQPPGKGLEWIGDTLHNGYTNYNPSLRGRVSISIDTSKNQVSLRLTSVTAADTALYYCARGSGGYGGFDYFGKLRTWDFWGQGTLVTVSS VL: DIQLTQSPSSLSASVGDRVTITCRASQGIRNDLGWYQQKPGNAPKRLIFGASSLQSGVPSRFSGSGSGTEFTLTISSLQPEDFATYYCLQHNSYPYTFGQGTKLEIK

>  <value_type>
Trimeric HA Binding: RLU

>  <unit_annotation>
RLU

>  <meas_value>
48200

$$$$
>  <binder>
TCN-527 (5086_C06) (antibody, V domains shown) VH: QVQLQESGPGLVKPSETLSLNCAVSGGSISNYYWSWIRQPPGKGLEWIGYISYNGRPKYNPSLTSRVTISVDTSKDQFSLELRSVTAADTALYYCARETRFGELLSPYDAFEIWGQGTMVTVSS VL: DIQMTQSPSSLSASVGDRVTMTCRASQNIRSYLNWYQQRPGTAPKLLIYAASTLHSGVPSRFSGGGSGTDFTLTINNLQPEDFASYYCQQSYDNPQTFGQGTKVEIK

>  <value_type>
Trimeric HA Binding: RLU

>  <unit_annotation>
RLU

>  <meas_value>
20600

$$$$
>  <binder>
TCN-504 (3251_K17) (antibody, V domains shown) VH: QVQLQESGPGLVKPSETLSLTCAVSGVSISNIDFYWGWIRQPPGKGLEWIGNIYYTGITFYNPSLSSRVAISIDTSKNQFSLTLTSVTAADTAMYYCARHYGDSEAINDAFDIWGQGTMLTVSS VL: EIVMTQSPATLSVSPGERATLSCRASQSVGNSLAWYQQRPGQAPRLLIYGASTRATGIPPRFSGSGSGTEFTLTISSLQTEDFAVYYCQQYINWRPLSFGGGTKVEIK

>  <value_type>
Trimeric HA Binding: RLU

>  <unit_annotation>
RLU

>  <meas_value>
15000

$$$$
